Attribution: patent US12358948B2

molecular target: hNTS2 receptor (Homo sapiens); construct: membranes prepared from them; assay: Competitive radioligand binding assay on the hNTS2 receptor; settings: ratio IC50 for NTS1 : IC50 for NTS2
Sequence (O95665 whole entry): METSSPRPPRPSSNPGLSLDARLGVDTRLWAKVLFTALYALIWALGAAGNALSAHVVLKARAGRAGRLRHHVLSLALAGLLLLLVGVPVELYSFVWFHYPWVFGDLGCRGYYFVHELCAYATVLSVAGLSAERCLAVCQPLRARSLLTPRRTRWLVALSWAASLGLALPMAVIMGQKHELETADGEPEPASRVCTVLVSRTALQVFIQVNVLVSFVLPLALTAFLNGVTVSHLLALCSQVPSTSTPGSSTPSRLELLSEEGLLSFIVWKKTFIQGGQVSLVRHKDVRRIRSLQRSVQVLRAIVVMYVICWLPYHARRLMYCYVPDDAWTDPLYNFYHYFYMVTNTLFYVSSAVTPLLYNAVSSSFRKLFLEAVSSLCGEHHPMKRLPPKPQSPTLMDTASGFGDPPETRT
Where a SMILES comes first, the peptide text is derived from it. Bridges are numbered along the chain shown (N, C = ends). [ ]: non-standard residue; d: D form. hCha = N[C@@H](CCC1CCCCC1)C(=O)O; dAllylGly = C=CC[C@@H](N)C(=O)O; Cha = N[C@@H](CC1CCCCC1)C(=O)O; Cit = NC(=O)NCCC[C@H](N)C(=O)O; AllylGly = C=CC[C@H](N)C(=O)O; R5 = C=CCCC[C@@](C)(N)C(=O)O; Orn = NCCC[C@H](N)C(=O)O; Nva = CCC[C@H](N)C(=O)O
Measured Selectivity accompanies every entry in the list below.

Molecule | Selectivity
CC(C)C[C@H](NC(=O)[C@H](Cc1ccc(O)cc1)NC(=O)[C@@H]1CC=CCCC[C@@](C)(N)C(=O)N[C@@H](CCCCN)C(=O)N[C@@H](CCCCN)C(=O)N1)C(=O)O [compound 90, c[G*(alpha-Me-(4-Pentenyl))KKG(All)]YL] (H-[R5]KK[AllylGly]YL-OH; staple 1-4) | >1300
CCC[C@H](NC(=O)[C@H](Cc1ccc(O)cc1)NC(=O)[C@@H]1CC=CC[C@H](N)C(=O)N[C@@H](CCCCN)C(=O)N[C@@H](CCCCN)C(=O)N1)C(=O)O [compound 29, c[G(All)KKG(All)]YNva] (H-[AllylGly]KK[AllylGly]Y[Nva]-OH; staple 1-4) | >30.3
NCCCC[C@@H]1NC(=O)[C@H](CCCCN)NC(=O)[C@@H](N)CC=CC[C@@H](C(=O)N[C@@H](Cc2ccc(O)cc2)C(=O)N[C@@H](CCC2CCCCC2)C(=O)O)NC1=O [compound 64, c[G(All)KKG(All)]YA(homoChA)] (H-[AllylGly]KK[AllylGly]Y[hCha]-OH; staple 1-4) | >12 920
CC(C)C[C@H](NC(=O)[C@H](Cc1ccc(O)cc1)NC(=O)[C@H]1CC=CC[C@@H](N)C(=O)N[C@@H](CCCCN)C(=O)N[C@@H](CCCCN)C(=O)N1)C(=O)O [compound 42, c[G*(All)KKG*(All)]YL] (H-[dAllylGly]KK[dAllylGly]YL-OH; staple 1-4) | >42
NCCCC[C@@H]1NC(=O)[C@H](CCCCN)NC(=O)[C@@H](N)CC=CC[C@@H](C(=O)N[C@@H](Cc2ccc(O)cc2)C(=O)N[C@@H](CC2CCCCC2)C(=O)O)NC1=O [compound 31, c[G(All)KKG(All)]YA(Ch)] (H-[AllylGly]KK[AllylGly]Y[Cha]-OH; staple 1-4) | >11534
CC(C)C[C@H](NC(=O)[C@H](Cc1ccc(O)cc1)NC(=O)[C@@H]1CC=CC[C@H](N)C(=O)N[C@@H](CCCCN)C(=O)N[C@@H](CCCNC(N)=O)C(=O)N1)C(=O)O [compound 146, c[G(All)KcitrullineG(All)]YL] (H-[AllylGly]K[Cit][AllylGly]YL-OH; staple 1-4) | 143
CC(C)C[C@H](NC(=O)[C@H](Cc1ccc(O)cc1)NC(=O)[C@@H]1CC=CC[C@H](N)C(=O)N[C@@H](CCCCN)C(=O)N[C@@H](CCCN)C(=O)N1)C(=O)O [compound 51, c[G(All)KOrnG(All)]YL] (H-[AllylGly]K[Orn][AllylGly]YL-OH; staple 1-4) | >1422
